# target under test: T1, human αvβ6-Integrin (human, UniProt P06756 31-992; P18564 22-707, limits assumed)
# T1 construct: Soluble integrin bought from R&D
# T1 sequence (P06756 31-992 limits assumed, chain 1 of 2): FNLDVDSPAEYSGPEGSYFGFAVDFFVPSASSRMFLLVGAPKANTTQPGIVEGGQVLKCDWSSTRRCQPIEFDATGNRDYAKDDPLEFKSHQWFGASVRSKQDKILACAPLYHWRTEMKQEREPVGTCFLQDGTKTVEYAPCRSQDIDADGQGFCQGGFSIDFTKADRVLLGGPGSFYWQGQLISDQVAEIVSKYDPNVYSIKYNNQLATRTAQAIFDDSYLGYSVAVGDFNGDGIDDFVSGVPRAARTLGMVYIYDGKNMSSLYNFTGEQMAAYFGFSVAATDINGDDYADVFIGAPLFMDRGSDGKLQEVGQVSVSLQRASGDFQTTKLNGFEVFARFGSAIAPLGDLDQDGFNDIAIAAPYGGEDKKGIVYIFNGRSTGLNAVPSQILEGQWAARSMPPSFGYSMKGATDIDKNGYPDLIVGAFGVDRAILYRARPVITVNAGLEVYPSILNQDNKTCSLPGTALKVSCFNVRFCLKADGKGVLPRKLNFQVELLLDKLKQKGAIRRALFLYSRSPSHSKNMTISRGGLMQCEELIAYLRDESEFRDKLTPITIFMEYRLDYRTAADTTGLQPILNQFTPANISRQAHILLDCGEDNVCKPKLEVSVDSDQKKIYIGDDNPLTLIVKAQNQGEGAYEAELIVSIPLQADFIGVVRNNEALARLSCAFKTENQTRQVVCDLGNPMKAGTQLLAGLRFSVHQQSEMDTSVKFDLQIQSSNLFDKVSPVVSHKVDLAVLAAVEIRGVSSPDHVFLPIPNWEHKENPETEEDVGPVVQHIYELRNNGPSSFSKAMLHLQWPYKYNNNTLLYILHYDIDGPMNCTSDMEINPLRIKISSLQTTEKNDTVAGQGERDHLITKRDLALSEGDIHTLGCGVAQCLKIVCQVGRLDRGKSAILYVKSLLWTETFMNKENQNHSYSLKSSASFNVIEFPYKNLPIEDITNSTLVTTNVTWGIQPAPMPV
# T1 sequence (P18564 22-707 limits assumed, chain 2 of 2): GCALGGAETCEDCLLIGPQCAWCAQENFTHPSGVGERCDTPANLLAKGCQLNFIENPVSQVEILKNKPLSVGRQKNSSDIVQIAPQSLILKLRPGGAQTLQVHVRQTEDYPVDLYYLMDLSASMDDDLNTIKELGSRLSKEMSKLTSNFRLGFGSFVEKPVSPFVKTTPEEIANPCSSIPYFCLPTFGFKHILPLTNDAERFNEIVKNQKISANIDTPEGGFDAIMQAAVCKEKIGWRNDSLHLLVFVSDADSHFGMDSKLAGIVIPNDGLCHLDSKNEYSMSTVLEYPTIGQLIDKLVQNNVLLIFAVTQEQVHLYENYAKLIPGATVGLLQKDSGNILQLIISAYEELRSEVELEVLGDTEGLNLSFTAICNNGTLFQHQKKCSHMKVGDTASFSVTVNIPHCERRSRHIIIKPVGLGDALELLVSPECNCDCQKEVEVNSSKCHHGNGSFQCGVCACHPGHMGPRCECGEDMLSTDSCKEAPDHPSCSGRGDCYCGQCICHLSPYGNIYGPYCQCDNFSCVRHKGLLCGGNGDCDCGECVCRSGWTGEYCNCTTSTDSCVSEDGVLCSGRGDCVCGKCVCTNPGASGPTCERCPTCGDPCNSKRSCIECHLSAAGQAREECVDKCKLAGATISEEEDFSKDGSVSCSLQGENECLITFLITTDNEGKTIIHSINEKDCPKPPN
# assay summary: solid-phase competition assay; value given for the internal standard
observable: IC50

## Task In one line, give reported IC50 of the entry RTDLDSLRT (Internal standard for αvβ6 and αvβ8) [linear peptide RTDLDSLRT] .
## Result 6 to 33 nM
